Below: a set of entries, each annotated with reported log10(Kd).
SYSTEM_TESTED: T1, Tryparedoxin (Trypanosoma brucei, UniProt O77404)
T1 chain: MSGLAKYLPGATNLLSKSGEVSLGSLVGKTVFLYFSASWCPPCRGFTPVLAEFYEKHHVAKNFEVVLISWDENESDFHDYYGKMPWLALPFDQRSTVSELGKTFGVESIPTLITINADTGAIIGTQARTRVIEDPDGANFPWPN
PROTOCOL_DETAILS: qLILBID-MS
PROPERTY: log10(Kd) (log10 of the value in µM)

binder="Tryparedoxin (protein, CtFT covalently bound to C40) MSGLAKYLPGATNLLSKSGEVSLGSLVGKTVFLYFSASWCPPCRGFTPVLAEFYEKHHVAKNFEVVLISWDENESDFHDYYGKMPWLALPFDQRSTVSELGKTFGVESIPTLITINADTGAIIGTQARTRVIEDPDGANFPWPN" property=log10(Kd) experimental_value=2.56
binder="Tryparedoxin (protein, para-CFT covalently bound to C40) MSGLAKYLPGATNLLSKSGEVSLGSLVGKTVFLYFSASWCPPCRGFTPVLAEFYEKHHVAKNFEVVLISWDENESDFHDYYGKMPWLALPFDQRSTVSELGKTFGVESIPTLITINADTGAIIGTQARTRVIEDPDGANFPWPN" property=log10(Kd) experimental_value=0.70
binder="Tryparedoxin (protein, meta-CFT covalently bound to C40) MSGLAKYLPGATNLLSKSGEVSLGSLVGKTVFLYFSASWCPPCRGFTPVLAEFYEKHHVAKNFEVVLISWDENESDFHDYYGKMPWLALPFDQRSTVSELGKTFGVESIPTLITINADTGAIIGTQARTRVIEDPDGANFPWPN" property=log10(Kd) experimental_value=0.78
binder="Tryparedoxin (protein, CPT covalently bound to C40) MSGLAKYLPGATNLLSKSGEVSLGSLVGKTVFLYFSASWCPPCRGFTPVLAEFYEKHHVAKNFEVVLISWDENESDFHDYYGKMPWLALPFDQRSTVSELGKTFGVESIPTLITINADTGAIIGTQARTRVIEDPDGANFPWPN" property=log10(Kd) experimental_value=1.20
binder="Tryparedoxin (protein, ortho-CFT covalently bound to C40) MSGLAKYLPGATNLLSKSGEVSLGSLVGKTVFLYFSASWCPPCRGFTPVLAEFYEKHHVAKNFEVVLISWDENESDFHDYYGKMPWLALPFDQRSTVSELGKTFGVESIPTLITINADTGAIIGTQARTRVIEDPDGANFPWPN" property=log10(Kd) experimental_value=1.41

This collection of values is drawn from paper PMC13088243.
